# Assay details: IANBD-channel fluorescence artefacts in buffer – biochemical, artefact control for cardiac RTF calcium sensitizer project, confirmation (AID 504382)
# Experimental conditions: IANBD fluorescence interference counterscreen, EC20 Ca2+, at 7.2 µM, scaled: EC20 calcium 0, EC100 calcium 100
The campaign covered roughly 2,500 compounds. About 460 (18%) were called active.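 Rule for the calls: active = mean activation above a cutoff of low control average plus 3 SD from the earlier screen (cut at about 12% in these data); inactive = the rest.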 Not all results are given here.
The categories you may choose from are 1 (active), 0 (inactive)

Answered examples (2):
In [3]: df
Out[3]:
                                   compound  label_value
0  COc1ccc(COc2cc(-c3cccc(OC)c3)nc3ccc(NC(=O)c4ccc(C)cc4)cc23)cc1            0
1  Cn1cc(/C=C2\SC(=S)N(NC(=O)c3ccccc3)C2=O)c2ccccc21            0

input: For O=C(N/N=C/c1c(O)ccc2ccccc12)c1cccc(C(F)(F)F)c1 , what call appears in the results of this test?
output: 1

input: For Nc1ccc2nc3c(=O)n(C4CCCCC4)c(=O)[nH]c3nc2c1 , what call appears in the results of this test?
output: 0

input: For CN1CCS/C1=C/C=C1\SC(=S)N(CC(=O)O)C1=O , what call appears in the results of this test?
output: 1

input: For CCOc1ccc(Cn2nnc(C(=O)NCCc3ccccc3)c2N)cc1 , what call appears in the results of this test?
output: 1

* * *

# Assay details: IANBD-channel fluorescence artefacts in buffer – biochemical, artefact control for cardiac RTF calcium sensitizer project, confirmation (AID 504382)
# Experimental conditions: IANBD fluorescence interference counterscreen, EC20 Ca2+, at 7.2 µM, stronger effect = higher value, scaled: EC20 calcium 0, EC100 calcium 100
In all, about 2,500 compounds went through this assay and about 460 (18%) were called active. The list is a sample of the results.
Outcome: 1 (yes) for fluorescence artifact activation of at least 2%; 0 (no) for anything lower.

>>> print(df.to_string())
                                   compound  label_value
0  CCN(CC)CC(C(=O)N(CC)CC)P(=O)(c1ccccc1)c1ccccc1 (configuration not stated)       0 (no)

input: Would you say O=C(Nc1nccs1)C1CCN(S(=O)(=O)c2ccccc2)CC1 shows fluorescence artifact activation at minimum 2%?
output: 1 (yes)

input: Would you say Cc1cc(/C=C2\NC(=S)N(C)C2=O)ccc1N1CCCC1 shows fluorescence artifact activation at minimum 2%?
output: 1 (yes)

input: Would you say COc1ccc2noc3c2c1C(=O)c1ccccc1-3 shows fluorescence artifact activation at minimum 2%?
output: 0 (no)

input: Would you say Cc1noc(C)c1C(=O)Nc1nc2ccccc2s1 shows fluorescence artifact activation at minimum 2%?
output: 1 (yes)

input: Would you say O=C1CCC(=O)N1CC(O)COc1ccccc1 (configuration not stated) shows fluorescence artifact activation at minimum 2%?
output: 1 (yes)

input: Would you say CCOC(=O)/C(=C\c1c[nH]c2ccccc12)NC(C)=O shows fluorescence artifact activation at minimum 2%?
output: 1 (yes)

input: Would you say O=C(NCCc1ccccc1)c1ccc(Cl)nc1 shows fluorescence artifact activation at minimum 2%?
output: 1 (yes)

input: Would you say CCCCCC(C)NC(=S)NC(=O)c1cc(S(=O)(=O)N2CCOCC2)ccc1C (configuration not stated) shows fluorescence artifact activation at minimum 2%?
output: 0 (no)

input: Would you say O=C(COC(=O)C1(c2ccc(F)cc2)CCCC1)N1CCN(C(=O)c2ccco2)CC1 shows fluorescence artifact activation at minimum 2%?
output: 0 (no)

input: Would you say COc1cc(/C=C/C(=O)c2ccc3c(c2)OCO3)cc(Cl)c1O shows fluorescence artifact activation at minimum 2%?
output: 0 (no)

input: Would you say Cc1ccc[n+](-c2nc([O-])sc2C=O)c1 shows fluorescence artifact activation at minimum 2%?
output: 1 (yes)
